- targetDesc: human properdin (human, UniProt P27918 28-469)
- Sequence (P27918 28-469 limits assumed): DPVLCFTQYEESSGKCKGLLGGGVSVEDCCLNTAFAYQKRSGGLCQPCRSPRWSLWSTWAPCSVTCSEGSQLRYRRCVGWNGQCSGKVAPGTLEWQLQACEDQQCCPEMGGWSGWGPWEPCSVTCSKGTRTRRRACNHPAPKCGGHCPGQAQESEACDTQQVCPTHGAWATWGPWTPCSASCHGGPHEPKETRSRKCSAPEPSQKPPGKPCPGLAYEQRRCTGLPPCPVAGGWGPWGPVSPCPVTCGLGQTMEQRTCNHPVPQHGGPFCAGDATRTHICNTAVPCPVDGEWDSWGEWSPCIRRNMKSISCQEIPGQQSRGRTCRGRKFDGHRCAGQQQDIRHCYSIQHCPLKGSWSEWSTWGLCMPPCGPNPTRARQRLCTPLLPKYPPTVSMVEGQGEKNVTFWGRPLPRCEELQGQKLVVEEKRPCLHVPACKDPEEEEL
- methodDescription: cell-based or functional assay
Measured IC50 (read off the curve): C3b deposition (AP activation on LPS, normal human serum) by item
propertyLabel: IC50 (read off the curve): C3b deposition (AP activation on LPS, normal human serum)

binder="NMT21 (antibody, V domains shown) VH: EVQLVQSGAEVKKPGASVKVSCKASGYIFTNYPIHWVRQAPGQGLEWMGFIDPGGGYDEYAQKFQGRVTLTADTSTSTAYMELSSLRSEDTAVYYCARRGGGYYLDYWGQGTTLTVSS VL: DIQMTQSPSSLSASVGDRVTITCRASQDISFFLNWYQQKPGKAPKLLIYYTSRYHSGVPSRFSGSGSGTDFTLTISSLQPEDFATYYCQHGQTLPWTFGQGTKLEIK" recordedresult="~0.5 µg/mL"
binder="NMT20 (antibody, V domains shown) VH: EVQLVQSGAEVKKPGASVKVSCKASGYIFTNYPIHWVRQAPGQGLEWMGFIDPGGGYDEPDERFRDRVTMTADTSTSTAYMELSSLRSEDTAVYYCARRGGGYYLDYWGQGTTVTVSS VL: DIQMTQSPSSLSASVGDRVTITCRASQDISFFLNWYQQKPGKAPKLLIYYTSRYHSGVPSRFSGSGSGTDFTLTISSLQPEDFATYYCQHGSTLPYTFGQGTKLEIK" recordedresult="~0.8 µg/mL"
binder="NMT15 (antibody, V domains shown) VH: QVQLVQSAPEVAKPGTSVKMSCKASGYIFTNYPIHWVKQAPGQGLEWIGFIDPGGGYDEPDERFRDRATLTADKSTSTAYMELSSLRSEDTAIYYCARRGGGYYLDYWGQGTLVTVSS VL: DIQMTQSPSSLSASLGDRVTITCRASQDISFFLNWYQQKPDGTVKLLIYYTSRYHSGVPSRFSGSGSGTDFTLTISSLQPEDFATYFCQHGNTLPWTFGQGTKLEIK" recordedresult="~0.5 µg/mL"
binder="NMT18 (antibody, V domains shown) VH: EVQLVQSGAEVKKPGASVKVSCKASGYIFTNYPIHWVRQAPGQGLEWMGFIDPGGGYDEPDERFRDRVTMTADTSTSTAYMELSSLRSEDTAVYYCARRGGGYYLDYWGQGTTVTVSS VL: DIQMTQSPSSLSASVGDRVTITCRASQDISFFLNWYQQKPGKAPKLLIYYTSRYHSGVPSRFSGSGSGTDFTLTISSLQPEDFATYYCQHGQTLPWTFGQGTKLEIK" recordedresult="~0.5 µg/mL"
binder="NMT17 (antibody, V domains shown) VH: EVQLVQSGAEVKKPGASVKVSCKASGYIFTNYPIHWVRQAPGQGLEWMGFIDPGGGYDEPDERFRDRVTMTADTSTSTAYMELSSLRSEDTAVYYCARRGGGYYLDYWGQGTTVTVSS VL: DIQMTQSPSSLSASVGDRVTITCRASQDISFFLNWYQQKPGKAPKLLIYYTSRYHSGVPSRFSGSGSGTDFTLTISSLQPEDFATYYCQHGSTLPWTFGQGTKLEIK" recordedresult="~0.7 µg/mL"
